Ref: the MegaScale stability set (Tsuboyama et al. 2023)

B1: 5KPH (parent)
chain: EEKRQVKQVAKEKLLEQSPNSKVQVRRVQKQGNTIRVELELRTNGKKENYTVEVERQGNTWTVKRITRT

Variants of: B1
Assay comment: folding stability dG (cDNA display proteolysis); higher = more stable
Stated conditions: PBS, room temperature
Reported property: folding stability dG (kcal/mol)
Give the value in kcal/mol but do not write kcal/mol after it.

These solved cases illustrate the format of a correct answer.
[
  {
    "Sequence content": "EEKRQVKQVRKEKLLEQSPNSKVQVRRVQKQGNTIRVELELRTNGKKENYTVEVERQGNTWTVKRITRT [A10R]",
    "folding stability dG / kcal/mol": 2.02
  },
  {
    "Sequence content": "EEKRQVKQVAKEKLLEQSPNSKVQVRRVQKQGNTIRVELELRTNGKKENYTVEVERQGNTWAVKRITRT [T62A]",
    "folding stability dG / kcal/mol": 4.05
  },
  {
    "Sequence content": "EEKRQVKQVAKEKLLEQSPNSKVQVRRVQKQGNTIRVELELRTNGQKENYTVEVERQGNTWTVKRITRT [K46Q]",
    "folding stability dG / kcal/mol": 3.84
  },
  {
    "Sequence content": "EEKRQVKQVAKEKLLEQSPNSKVQVRRVQKQGNTIRVELELRTNGKKENYVVEVERQGNTWTVKRITRT [T51V]",
    "folding stability dG / kcal/mol": 4.22
  },
  {
    "Sequence content": "EEKRQVKQVAKEKLLEQSPNSKVQVRRVQKQGNTIRVELELRTNGKKENYTVEVERQGSTWTVKRITRT [N59S]",
    "folding stability dG / kcal/mol": 3.62
  }
]

In one line, give reported folding stability dG of the entry EEKRYVKQVAKEKLLEQSPNSKVQVRRVQKQGNTIRVELELRTNGKKENYTVEVERQGNTWTVKRITRT [Q5Y] .
3.64

In one line, give reported folding stability dG of the entry EEFRQVKQVAKEKLLEQSPNSKVQVRRVQKQGNTIRVELELRTNGKKENYTVEVERQGNTWTVKRITRT [K3F] .
4.65

In one line, give reported folding stability dG of the entry EEKRQVKQVAKEKLLEQSPNSKVQVRRVQKQGNTIRVELELRTNGKKENYTVEVDRQGNTWTVKRITRT [E55D] .
3.2

In one line, give reported folding stability dG of the entry EEKRQVKQVAKEKLLEQSPNSKVQVRRVQKRGNTIRVELELRTNGKKENYTVEVERQGNTWTVKRITRT [Q31R] .
4.05

In one line, give reported folding stability dG of the entry EEKRQVKQVAKEKLLEQSPNSKVQVRRVQKQGNTIRVELELRTNGKKENYTVEVERQGNTWTVKRITRW [T69W] .
4.08
